Origin of the recorded values: PubChem BioAssay

Give measured composite z-score for each item. Keep answers brief.
Experiment: small-molecule binders of probe aNOTCH2, primary screen, biochemical, small-molecule microarray, 635/667 nm fluorescence (AID 1121);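 further: score merges feature fluorescence read at 667 nm with its signal to noise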
Conditions: higher = more signal

// below: answered compounds
Query string: Please look at this compound and report its composite z-score: CCC(CC)C(O)C1C=CC2C(=O)N(C)C(=O)C2N1Nc1ccccc1 (stereo not drawn)
Result string: -0.05

Query string: Please look at this compound and report its composite z-score: COc1cc(CO)cc(I)c1O[C@H]1C=C(C(=O)NCCO)C[C@@H](N(CCN2CCOCC2)C(=O)C2CCOC2)[C@@H]1O (stereo partly drawn)
Result string: -0.0729

Further cases:
Query string: Please look at this compound and report its composite z-score: `COC(=O)C(CC#Cc1ccc2c(c1)[C@]1(C(=O)N2)[C@H](C(=O)O)[C@H]2C(=O)O[C@H](c3ccccc3)[C@H](c3ccccc3)N2[C@@H]1c1ccc(O)cc1)C(=O)OC`
Result string: -0.181

---

Test system: Sonic hedgehog protein (Shh)
Test: small-molecule binders of Shh protein, primary screen, biochemical, small-molecule microarray, 635/667 nm fluorescence (AID 1151);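 further: Shh protein binding to compounds spotted on small-molecule microarray slides; score combines spot fluorescence intensity with signal-to-noise across triplicate slides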
Details: small-molecule microarray binding, 635 nm fluorescence; higher = more signal
Please mark Yes if the recorded composite z-score is equal to or greater than 0.9, and No if it falls below.

Query string: Textbook exercise: given the entry `COc1ccc(CCNC(=O)[C@@]2(Sc3ccc(C)cc3)CC(=O)N(C3CCCCC3)[C@@H]2c2ccc(CO)cc2I)cc1` , state whether its composite z-score is greater than or equal to 0.9.
Result string: No

Query string: Textbook exercise: given the entry CCOC(=O)C1=CCC(c2ccccc2)N(S(=O)(=O)CC[Si](C)(C)C)C1 (centres undefined) , state whether its composite z-score is greater than or equal to 0.9.
Result string: No

Query string: Textbook exercise: given the entry `COCCOC(=O)N1C(=O)[C@@]2(c3cc(C#Cc4ccc(OC)cc4)ccc31)[C@H](c1ccc(O)cc1)N1[C@H](c3ccccc3)[C@H](c3ccccc3)OC(=O)[C@H]1[C@@H]2C(=O)NC[C@H](O)c1ccccc1` , state whether its composite z-score is greater than or equal to 0.9.
Result string: Yes

---

Assay: CREB reporter modulators under forskolin, primary screen, cell-based, PC12, CRE-LacZ reporter, forskolin-stimulated (AID 1146);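 further: PC12 cells with 6xCRE LacZ reporter stimulated by forskolin 10 µM; beta-galactosidase reporter signal reflecting CREB driven transcription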
Conditions: luminescence, 4.5 h, higher = more signal, called active from +8 up or from −8 down
Please mark Fulfilled if the recorded z-score is equal to or greater than -0.5, and Not fulfilled if it falls below.

Query string: Textbook exercise: given the entry `CC(=O)NCCCC[C@@H]1NC(=O)[C@@H]2C[C@H](C(=O)NCCCCCCNC(=O)CS)[C@H](c3cccc(OCCO)c3)N2C1=O` , state whether its z-score is greater than or equal to -0.5.
Result string: Not fulfilled

Query string: Textbook exercise: given the entry [N-]=[N+]=NCc1ccccc1C[C@@]1(C(=O)NCC(O)CO)N=C(c2ccc(OCCCO)cc2)O[C@@H]1c1ccccc1N=[N+]=[N-] (some centres undefined) , state whether its z-score is greater than or equal to -0.5.
Result string: Not fulfilled

Query string: Textbook exercise: given the entry `C=C(/C(=C/C[C@@H](OC(C)=O)c1ccc(OCCO)cc1)c1cnc2ccccc2c1)C(C)C` , state whether its z-score is greater than or equal to -0.5.
Result string: Fulfilled
